These entries and their values trace back to patent US20070254831A1.

Molecular target: T1, soluble human FcRn (human, UniProt P55899 24-297; P61769 21-119, biotinylated (Sulfo-NHS-LC-Biotin) in the ELISA; amine-coupled to CM5 chip in SPR)
T1 construct: also called shFcRn; biotinylated shFcRn
Test: SPR, pH 6
Bridge positions count the residues as written; N and C are the ends. Ends that are not written are not given here.
value.type: Kd (µM)

Use these answered entries as a reference point.
> print(dat)
                                     binder  observed.result
1  QRFCTGHFGGLYPCAGP-NH2 (disulfide 4-14 (inferred)) [SEQ ID NO:36]                8
2  QRFCAGHFGGLYPCNGP-NH2 (disulfide 4-14 (inferred)) [SEQ ID NO:27]              4.9
3  QRFCTGHFGGAYPCNGP-NH2 (disulfide 4-14 (inferred)) [SEQ ID NO:33]               26

1. QRACTGHFGGLYPCNGP-NH2 (disulfide 4-14 (inferred)) [SEQ ID NO:26]
2. QAFCTGHFGGLYPCNGP-NH2 (disulfide 4-14 (inferred)) [SEQ ID NO:25]
3. QRFCTGHFGGLYPCNGP-NH2 (disulfide 4-14 (inferred)) [SEQ ID NO:1]
4. QRFCTGHFAGLYPCNGP-NH2 (disulfide 4-14 (inferred)) [SEQ ID NO:31]
# desc sort on Kd across 4 binders Lab note: record answer as labels in requested order. 4, 1, 2, 3
